Test: Example 1: pharmacokinetics after in-clinic subcutaneous dose
Format: in vivo, human
Details: human, blood, sc, 1.25 mg, 1.25 mg SC, Visit 5; read-out: Cmax, Median
metric: Cmax
Please report the result as a number followed by the unit.

Lab note: CCCC[C@H](NC(C)=O)C(=O)N[C@H]1CC(=O)NCCCC[C@@H](C(=O)O)NC(=O)[C@H](Cc2c[nH]c3ccccc23)NC(=O)[C@H](CCCNC(=N)N)NC(=O)[C@@H](Cc2ccccc2)NC(=O)[C@H](Cc2c[nH]cn2)NC1=O [bremelanotide] gave Cmax of 56 ng/mL

###

Assay: Example 1: pharmacokinetics after in-clinic subcutaneous dose
Format: in vivo, human
Conditions: human, in vivo, sc, 1.75 mg, 1.75 mg SC, Visit 5; read-out: AUC(0-2h), Median
metric: AUC(0-t) (ng·h/mL)
Your answer should be a plain number; it is taken to be in ng·h/mL.

CCCC[C@H](NC(C)=O)C(=O)N[C@H]1CC(=O)NCCCC[C@@H](C(=O)O)NC(=O)[C@H](Cc2c[nH]c3ccccc23)NC(=O)[C@H](CCCNC(=N)N)NC(=O)[C@@H](Cc2ccccc2)NC(=O)[C@H](Cc2c[nH]cn2)NC1=O [bremelanotide] has a reported AUC(0-t) of 112

###

Test: Example 1: pharmacokinetics after in-clinic subcutaneous dose
Format: in vivo, human
Conditions: human, in vivo, sc, 1.75 mg, 1.75 mg subcutaneous dose, Example 1; read-out: Cmax, maximum
metric: Cmax (ng/mL)
Express the result in ng/mL but write the number alone.

Recorded Cmax (compound CCCC[C@H](NC(C)=O)C(=O)N[C@H]1CC(=O)NCCCC[C@@H](C(=O)O)NC(=O)[C@H](Cc2c[nH]c3ccccc23)NC(=O)[C@H](CCCNC(=N)N)NC(=O)[C@@H](Cc2ccccc2)NC(=O)[C@H](Cc2c[nH]cn2)NC1=O [bremelanotide] ): 115

###

Assay: Example 1: pharmacokinetics after in-clinic subcutaneous dose
Assay type: in vivo, human
Details: human, blood, sc, 1.25 mg, 1.25 mg SC, Visit 7; read-out: Cmax, Median
Procedure: Ambulatory blood pressure monitoring was conducted following both placebo and randomized treatment group in-clinic administrations. […] Mean pharmacokinetic parameters were determined by bremelanotide dose and visit, including Cmax determinations (the highest ng/mL concentration at either 0.5 or 1 hour post administration) and AUC determinations at two hours and, for a subset of subjects in each group, at four hours. […]
metric: Cmax (ng/mL)
// return numeric value only (unit: ng/mL, not printed)

Cmax in this record for CCCC[C@H](NC(C)=O)C(=O)N[C@H]1CC(=O)NCCCC[C@@H](C(=O)O)NC(=O)[C@H](Cc2c[nH]c3ccccc23)NC(=O)[C@H](CCCNC(=N)N)NC(=O)[C@@H](Cc2ccccc2)NC(=O)[C@H](Cc2c[nH]cn2)NC1=O [bremelanotide] : 60

###

Assay: Example 1: pharmacokinetics after in-clinic subcutaneous dose
Type: in vivo, human
Conditions: human, in vivo, sc, 1.75 mg, 1.75 mg subcutaneous dose, Example 1; read-out: Cmax, minimum
metric: Cmax
Kindly write the number and append the unit.

Looking up CCCC[C@H](NC(C)=O)C(=O)N[C@H]1CC(=O)NCCCC[C@@H](C(=O)O)NC(=O)[C@H](Cc2c[nH]c3ccccc23)NC(=O)[C@H](CCCNC(=N)N)NC(=O)[C@@H](Cc2ccccc2)NC(=O)[C@H](Cc2c[nH]cn2)NC1=O [bremelanotide] , I see its Cmax listed as 15 ng/mL
